The compounds listed here are annotated with their concentration at 32 h.
assay: Drug level in plasma of Sprague-Dawley rat at 10 mg/kg, po administered as single dose via gavage measured at 32 hrs by LC-MS/MS analysis; format: ADME, organism-based
Quick reminder: number only, in nM, skip the unit.

Here are 2 compounds together with their reported answers.
Cc1cc(C(=O)N[C@H]2CC/C(=C\c3cccc(Oc4ccc(C(F)(F)F)cn4)c3)CC2)cnc1N (stereo not drawn) :: 3000
Nc1ncc(C(=O)N[C@H]2CC/C(=C\c3cccc(Oc4ccc(C(F)(F)F)cn4)c3)CC2)cn1 (stereo not drawn) :: 2700

Input: I'd like to know its concentration at 32 h. The compound in question is Nc1ccc(C(=O)N[C@H]2CC/C(=C\c3cccc(Oc4ccc(C(F)(F)F)cn4)c3)CC2)cn1 (stereo not drawn)
Output: 2200
